The origin of these recorded values is patent US12421243B2.

# assayed_system: recombinant human non-muscle myosin 2 NM2B (Homo sapiens, UniProt P35580)
# Sequence (P35580 whole entry): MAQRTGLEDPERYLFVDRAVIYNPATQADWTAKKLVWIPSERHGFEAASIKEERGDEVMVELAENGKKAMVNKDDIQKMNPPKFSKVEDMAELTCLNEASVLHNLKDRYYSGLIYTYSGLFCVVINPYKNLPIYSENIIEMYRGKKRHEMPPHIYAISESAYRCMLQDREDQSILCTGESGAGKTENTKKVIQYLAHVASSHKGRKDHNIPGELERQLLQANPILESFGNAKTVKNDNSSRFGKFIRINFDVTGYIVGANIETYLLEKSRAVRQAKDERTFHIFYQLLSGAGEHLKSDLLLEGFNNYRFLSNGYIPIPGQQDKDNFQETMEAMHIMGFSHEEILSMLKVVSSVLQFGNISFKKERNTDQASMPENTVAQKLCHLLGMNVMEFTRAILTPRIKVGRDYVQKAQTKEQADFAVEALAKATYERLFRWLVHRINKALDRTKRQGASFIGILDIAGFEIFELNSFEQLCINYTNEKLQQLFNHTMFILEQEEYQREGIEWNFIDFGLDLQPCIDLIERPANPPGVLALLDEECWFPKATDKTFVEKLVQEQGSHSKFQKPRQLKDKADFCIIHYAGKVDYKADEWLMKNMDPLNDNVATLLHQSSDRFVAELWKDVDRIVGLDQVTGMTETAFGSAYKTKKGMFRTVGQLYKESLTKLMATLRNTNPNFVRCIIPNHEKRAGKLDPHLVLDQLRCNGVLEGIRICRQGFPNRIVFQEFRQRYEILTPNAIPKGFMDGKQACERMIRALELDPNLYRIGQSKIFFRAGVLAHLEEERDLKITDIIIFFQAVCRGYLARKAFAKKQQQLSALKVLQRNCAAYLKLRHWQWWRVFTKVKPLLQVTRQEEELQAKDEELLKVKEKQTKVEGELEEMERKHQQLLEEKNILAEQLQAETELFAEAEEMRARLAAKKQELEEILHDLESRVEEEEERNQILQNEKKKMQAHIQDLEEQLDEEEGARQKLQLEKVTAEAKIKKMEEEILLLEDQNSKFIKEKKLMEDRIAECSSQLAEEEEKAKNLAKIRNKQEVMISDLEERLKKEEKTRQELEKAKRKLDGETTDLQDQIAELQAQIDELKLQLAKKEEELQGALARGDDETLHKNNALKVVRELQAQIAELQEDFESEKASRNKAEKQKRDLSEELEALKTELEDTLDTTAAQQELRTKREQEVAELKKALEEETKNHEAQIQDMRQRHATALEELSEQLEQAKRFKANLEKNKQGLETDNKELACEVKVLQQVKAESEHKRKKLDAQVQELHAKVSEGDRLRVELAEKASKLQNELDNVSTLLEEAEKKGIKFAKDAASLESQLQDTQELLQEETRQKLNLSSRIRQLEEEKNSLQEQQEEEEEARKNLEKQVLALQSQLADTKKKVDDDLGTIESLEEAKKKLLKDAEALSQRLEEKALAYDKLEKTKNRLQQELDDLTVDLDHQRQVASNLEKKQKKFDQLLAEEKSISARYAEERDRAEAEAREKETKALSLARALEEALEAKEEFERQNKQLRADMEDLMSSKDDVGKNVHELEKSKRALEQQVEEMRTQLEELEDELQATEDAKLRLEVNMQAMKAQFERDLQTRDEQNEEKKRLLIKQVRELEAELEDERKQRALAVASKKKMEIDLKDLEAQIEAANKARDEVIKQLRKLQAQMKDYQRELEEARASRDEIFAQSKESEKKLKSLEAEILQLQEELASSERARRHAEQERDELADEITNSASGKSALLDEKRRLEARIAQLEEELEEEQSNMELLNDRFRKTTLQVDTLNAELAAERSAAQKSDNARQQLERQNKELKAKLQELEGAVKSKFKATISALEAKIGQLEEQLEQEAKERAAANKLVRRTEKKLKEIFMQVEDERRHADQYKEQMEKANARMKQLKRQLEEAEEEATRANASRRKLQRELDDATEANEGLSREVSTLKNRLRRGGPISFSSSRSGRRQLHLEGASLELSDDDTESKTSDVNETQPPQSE
# method_notes: actomyosin steady state ATPase measurement, NM2B
# Format: biochemical
# experimental_context: read-out: % inhibition at 50 μM (or 100 μM if racemate) NM2B; 50 μM (100 μM if racemate); ATPase activity
# Description: […]; (ii) the concentration required for semi-maximal inhibition.
Recorded inhibition at 50 µM for the following compounds
measurement_label: inhibition at 50 µM (%)

>>> measurement("Cc1cc2c(s1)N=C1N(c3ccccc3)CCC1(O)C2=O (stereo not shown) [Compound 198]")
80
>>> measurement("O=C1c2ccsc2N=C2N(c3ccccc3)CCC12O (stereo not shown) [Compound 180]")
44
>>> measurement("O=C1c2ccsc2N=C2N(c3ccc(N4CCOCC4)cc3)CCC12O (stereo not shown) [Compound 188]")
18
>>> measurement("O=C1c2cccnc2N=C2N(c3ccccc3)CCC12O (stereo not shown) [Compound 189]")
-5
>>> measurement("O=C1c2ccncc2N=C2N(c3ccccc3)CCC12O (stereo not shown) [Compound 174]")
9
>>> measurement("O=C1c2ncccc2N=C2N(c3ccccc3)CCC12O (stereo not shown) [Compound 190]")
24
>>> measurement("O=C1c2sccc2N=C2N(c3ccccc3)CCC12O (stereo not shown) [Compound 183]")
45

----------
# method_notes: tissue concentrations after intraperitoneal injection into a live rat
# Format: in vivo
# experimental_context: kidney, ip, 6 mg i.p., 5 min, read-out: Concentration of compound 188 in tissue samples (μM) kidney
measurement_label: concentration at 5 min (µM)

>>> measurement("O=C1c2ccsc2N=C2N(c3ccc(N4CCOCC4)cc3)CCC12O (stereo not shown)")
29

----------
In this section we review reported % inhibition. complete Smooth values for a set of compounds.
# assayed_system: isolated smooth muscle myosin (UniProt P10587)
# Sequence (P10587 whole entry): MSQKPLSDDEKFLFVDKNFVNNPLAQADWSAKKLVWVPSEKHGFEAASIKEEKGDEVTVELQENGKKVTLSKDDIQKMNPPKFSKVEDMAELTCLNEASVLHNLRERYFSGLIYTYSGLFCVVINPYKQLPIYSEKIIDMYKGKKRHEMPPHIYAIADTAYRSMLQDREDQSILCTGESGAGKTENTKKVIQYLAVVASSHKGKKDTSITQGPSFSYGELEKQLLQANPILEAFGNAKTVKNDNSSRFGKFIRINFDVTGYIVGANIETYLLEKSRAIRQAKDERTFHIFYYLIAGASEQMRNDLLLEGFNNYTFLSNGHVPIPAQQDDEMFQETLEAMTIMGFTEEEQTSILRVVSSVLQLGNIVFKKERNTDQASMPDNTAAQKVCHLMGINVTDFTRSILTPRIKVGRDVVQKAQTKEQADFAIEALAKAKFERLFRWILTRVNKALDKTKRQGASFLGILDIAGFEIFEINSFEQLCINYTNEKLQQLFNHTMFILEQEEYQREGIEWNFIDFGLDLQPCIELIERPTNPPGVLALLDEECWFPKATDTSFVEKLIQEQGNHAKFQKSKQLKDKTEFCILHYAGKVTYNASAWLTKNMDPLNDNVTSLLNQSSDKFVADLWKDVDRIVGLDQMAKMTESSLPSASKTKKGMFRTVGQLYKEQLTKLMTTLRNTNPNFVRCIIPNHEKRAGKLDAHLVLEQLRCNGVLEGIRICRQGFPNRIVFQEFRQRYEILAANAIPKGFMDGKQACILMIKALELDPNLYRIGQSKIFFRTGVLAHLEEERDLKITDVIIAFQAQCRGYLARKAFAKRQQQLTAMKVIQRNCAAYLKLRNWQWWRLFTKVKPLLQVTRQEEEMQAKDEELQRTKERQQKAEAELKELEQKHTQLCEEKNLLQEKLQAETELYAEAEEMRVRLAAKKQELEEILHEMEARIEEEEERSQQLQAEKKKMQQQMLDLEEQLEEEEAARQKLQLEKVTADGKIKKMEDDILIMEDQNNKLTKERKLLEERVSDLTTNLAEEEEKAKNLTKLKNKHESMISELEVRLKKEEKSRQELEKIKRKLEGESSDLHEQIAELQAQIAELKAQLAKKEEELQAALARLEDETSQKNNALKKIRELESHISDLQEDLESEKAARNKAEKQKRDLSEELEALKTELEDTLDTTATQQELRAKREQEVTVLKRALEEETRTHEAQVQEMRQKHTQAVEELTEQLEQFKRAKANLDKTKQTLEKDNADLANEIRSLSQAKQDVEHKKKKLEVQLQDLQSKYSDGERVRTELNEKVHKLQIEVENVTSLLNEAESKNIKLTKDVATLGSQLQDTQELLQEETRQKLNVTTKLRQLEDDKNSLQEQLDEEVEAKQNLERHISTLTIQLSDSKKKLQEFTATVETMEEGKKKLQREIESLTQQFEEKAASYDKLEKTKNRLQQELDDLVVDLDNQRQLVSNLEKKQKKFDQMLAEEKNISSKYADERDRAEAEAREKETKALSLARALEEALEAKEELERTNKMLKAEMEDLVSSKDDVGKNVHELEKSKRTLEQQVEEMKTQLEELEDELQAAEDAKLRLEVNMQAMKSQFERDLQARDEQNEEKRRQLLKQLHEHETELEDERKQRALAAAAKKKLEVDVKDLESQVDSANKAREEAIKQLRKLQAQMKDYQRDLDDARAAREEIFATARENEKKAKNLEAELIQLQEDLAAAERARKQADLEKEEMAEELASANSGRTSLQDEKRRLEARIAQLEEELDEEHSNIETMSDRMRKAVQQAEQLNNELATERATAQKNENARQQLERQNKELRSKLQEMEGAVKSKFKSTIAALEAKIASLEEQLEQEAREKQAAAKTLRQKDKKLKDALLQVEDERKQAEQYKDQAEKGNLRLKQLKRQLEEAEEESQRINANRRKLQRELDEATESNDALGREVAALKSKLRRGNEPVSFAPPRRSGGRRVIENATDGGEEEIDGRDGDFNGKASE
# Assay type: biochemical, chamois
# experimental_context: maximum value of inhibition of ATPase activity
measurement_label: % inhibition. complete Smooth (%)

>>> measurement("Nc1ccc(N2CC[C@@]3(O)C(=O)c4ccsc4N=C23)cc1")
37
>>> measurement("O=C1c2ccncc2N=C2N(c3ccc(N4CCOCC4)cc3)CCC12O (stereo not drawn)")
0
>>> measurement("O=C1c2ccsc2N=C2NCC[C@@]12O")
7
>>> measurement("Cc1cc2c(s1)N=C1N(c3ccc(CO)cc3)CCC1(O)C2=O (stereo not drawn)")
99
>>> measurement("O=C1c2ccsc2N=C2N(c3ccc(N4CCOCC4)cc3)CCC12O (stereo not drawn)")
100
>>> measurement("Cc1cc2c(s1)N=C1N(c3ccc(N)cc3)CCC1(O)C2=O (stereo not drawn)")
97
>>> measurement("O=C1c2cccnc2N=C2N(c3ccccc3)CCC12O (stereo not drawn)")
8
>>> measurement("CC(=O)c1ccc(N2CCC3(O)C(=O)c4cc(C)sc4N=C23)cc1 (stereo not drawn)")
100
>>> measurement("O=C1c2ccncc2N=C2N(c3ccc(OC(F)(F)F)cc3)CCC12O (stereo not drawn)")
31

----------
# assayed_system: isolated porcine cardiac ventricular myocardium (cardiac) (Sus scrofa, UniProt P79293)
# Construct: isolated porcine cardiac ventricular myocardium (cardiac); from tissue; host or cells: porcine cardiac ventricle
# method_notes: actomyosin steady state ATPase measurement, cardiac myosin
# Assay type: biochemical
# experimental_context: maximum inhibition; compounds in IC50 range 3-6 μM
measurement_label: Inhibition (%) cardiac

>>> measurement("Cc1cc2c(s1)N=C1N(c3ccccc3)CCC1(O)C2=O (stereo not drawn)")
100
>>> measurement("COc1ccc(N2CC[C@@]3(O)C(=O)c4ccsc4N=C23)cn1")
84
>>> measurement("O=C1c2ccsc2N=C2NCC[C@@]12O")
8
>>> measurement("CN(C)c1ccc(N2CCC3(O)C(=O)c4ccncc4N=C23)cc1 (stereo not drawn)")
15
>>> measurement("O=C1c2ccsc2N=C2N(c3ccccc3)CCC12O (stereo not drawn)")
89
>>> measurement("Cc1cc2c(s1)N=C1N(c3ccc(N4CCOCC4)cc3)CCC1(O)C2=O (stereo not drawn)")
39
